Kindly supply the reported Ratio Ki values for the records listed here.
# Species: Homo sapiens
# Protocol text: Selectivity ratio of Ki for human NET to Ki for human DAT
Please give only the number in your answer, with no unit.

Look at this molecule and give its reported Ratio Ki. COC(=O)[C@@H]1C2CCC(C[C@@H]1c1ccc(I)cc1)N2C (stereo partly drawn)
4.9

Then what about the molecule CN1C2CCC1[C@@H](C(=O)Nc1ccc(CNC(=O)[C@H]3C4CCC(C[C@@H]3c3ccc(-c5ccsc5)cc3)N4C)cc1)[C@@H](c1ccc(-c3ccsc3)cc1)C2 (stereo partly drawn) ?
3.4

Do the same for CN1C2CCC1[C@@H](C(=O)NCCC1CCN(C(=O)[C@H]3C4CCC(C[C@@H]3c3ccc(Cl)cc3)N4C)CC1)[C@@H](c1ccc(Cl)cc1)C2 (stereo partly drawn) please
2.5

Can you handle CN1C2CCC1[C@@H](C(=O)NCCCCCCNC(=O)[C@H]1C3CCC(C[C@@H]1c1ccc(-c4ccsc4)cc1)N3C)[C@@H](c1ccc(-c3ccsc3)cc1)C2 next?
4

Next molecule up: CN1C2CCC1[C@@H](C(=O)NCc1ccc(CCNC(=O)[C@H]3C4CCC(C[C@@H]3c3ccc(Cl)cc3)N4C)cc1)[C@@H](c1ccc(Cl)cc1)C2 (stereo partly drawn)
5.2

Same question for CN1C2CCC1[C@@H](C(=O)OCc1cn(CCOC(=O)[C@H]3C4CCC(C[C@@H]3c3ccc(Cl)cc3)N4C)nn1)[C@@H](c1ccc(Cl)cc1)C2 (stereo partly drawn) please.
7.3

Please give the result for CN1C2CCC1[C@@H](C(=O)NCCCCCCCCCCNC(=O)[C@H]1C3CCC(C[C@@H]1c1ccc(-c4ccsc4)cc1)N3C)[C@@H](c1ccc(-c3ccsc3)cc1)C2 too.
4.4

Check CN1C2CCC1[C@@H](C(=O)OCCCCCn1ccnn1)[C@@H](c1ccc(Cl)cc1)C2 (stereo partly drawn) too.
69

Then CN1C2CCC1[C@@H](C(=O)Nc1ccc(CNC(=O)[C@H]3C4CCC(C[C@@H]3c3ccc(Cl)cc3)N4C)cc1)[C@@H](c1ccc(Cl)cc1)C2 (stereo partly drawn) ?
39

How about COC(=O)[C@@H]1C2CCC(C[C@@H]1c1ccc(-c3ccsc3)cc1)N2C (stereo partly drawn) ?
10

// next record CN1C2CCC1[C@@H](C(=O)N[C@H]1CC[C@H](NC(=O)[C@H]3C4CCC(C[C@@H]3c3ccc(Cl)cc3)N4C)CC1)[C@@H](c1ccc(Cl)cc1)C2
5.5

Next record, please: CN1C2CCC1[C@@H](C(=O)NCc1ccc(CNC(=O)[C@H]3C4CCC(C[C@@H]3c3ccc(-c5ccsc5)cc3)N4C)cc1)[C@@H](c1ccc(-c3ccsc3)cc1)C2
6.7

Proceed to CN1C2CCC1[C@@H](C(=O)Nc1ccc(NC(=O)[C@H]3C4CCC(C[C@@H]3c3ccc(-c5ccsc5)cc3)N4C)cc1)[C@@H](c1ccc(-c3ccsc3)cc1)C2
9.4

----------
# Species on record: Homo sapiens
# Protocol text: Selectivity ratio of Ki for human SERT to Ki for human DAT
Field: Ratio Ki. Provide a value for each of the compounds that follow.

Name the reported Ratio Ki value associated with the compound CN1C2CCC1[C@@H](C(=O)NCCCCCCCCNC(=O)[C@H]1C3CCC(C[C@@H]1c1ccc(-c4ccsc4)cc1)N3C)[C@@H](c1ccc(-c3ccsc3)cc1)C2
0.68

Also need CN1C2CCC1[C@@H](C(=O)OCc1cn(CCCCCCCOC(=O)[C@H]3C4CCC(C[C@@H]3c3ccc(Cl)cc3)N4C)nn1)[C@@H](c1ccc(Cl)cc1)C2 (stereo partly drawn) , thanks.
0.89

Proceed to COC(=O)[C@@H]1C2CCC(C[C@@H]1c1ccc(-c3ccsc3)cc1)N2C (stereo partly drawn)
0.24

----------
# Target or test system: Sodium-dependent dopamine transporter (Homo sapiens, UniProt Q01959)
# Sequence (Q01959 whole entry): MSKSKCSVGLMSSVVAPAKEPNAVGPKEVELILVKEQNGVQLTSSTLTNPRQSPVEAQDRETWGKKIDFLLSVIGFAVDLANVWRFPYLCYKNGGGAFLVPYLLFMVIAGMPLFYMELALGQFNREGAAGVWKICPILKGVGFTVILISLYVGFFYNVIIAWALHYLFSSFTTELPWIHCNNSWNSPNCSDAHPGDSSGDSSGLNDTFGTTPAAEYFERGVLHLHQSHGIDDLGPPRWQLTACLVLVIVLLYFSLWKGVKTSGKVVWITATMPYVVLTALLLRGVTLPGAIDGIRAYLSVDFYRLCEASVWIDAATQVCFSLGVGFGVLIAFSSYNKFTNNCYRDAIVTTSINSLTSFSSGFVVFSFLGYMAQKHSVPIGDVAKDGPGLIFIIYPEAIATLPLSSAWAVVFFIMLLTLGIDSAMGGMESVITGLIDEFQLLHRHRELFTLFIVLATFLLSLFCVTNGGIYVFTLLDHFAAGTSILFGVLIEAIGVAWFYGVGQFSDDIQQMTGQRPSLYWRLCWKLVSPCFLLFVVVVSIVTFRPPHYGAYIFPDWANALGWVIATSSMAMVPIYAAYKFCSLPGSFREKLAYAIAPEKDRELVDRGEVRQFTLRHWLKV
# Protocol text: Displacement of [125I]methyl 3-(4-iodophenyl)-8-methyl-8-aza-bicyclo[3.2.1]octane-2-carboxylate from human recombinant DAT expressed in african green monkey COS1 cells by liquid scintillation counting
Under this convention, true denotes Ki strictly below 200 nM and false denotes Ki at or above 200 nM.

Is 200 nM strictly greater than the compound's reported Ki? compound: CN1C2CCC1[C@@H](C(=O)Nc1ccc(CNC(=O)[C@H]3C4CCC(C[C@@H]3c3ccc(Cl)cc3)N4C)cc1)[C@@H](c1ccc(Cl)cc1)C2 (stereo partly specified)
true

Would you kindly repeat that for CN1C2CCC1[C@@H](C(=O)OCCCCCn1ccnn1)[C@@H](c1ccc(Cl)cc1)C2 (stereo partly specified) ?
true

Follow-up entry: CN1C2CCC1[C@@H](C(=O)NCc1cccc(CNC(=O)[C@H]3C4CCC(C[C@@H]3c3ccc(-c5ccsc5)cc3)N4C)c1)[C@@H](c1ccc(-c3ccsc3)cc1)C2
false

// next record CN1C2CCC1[C@@H](C(=O)NCc1ccc(CCNC(=O)[C@H]3C4CCC(C[C@@H]3c3ccc(-c5ccsc5)cc3)N4C)cc1)[C@@H](c1ccc(-c3ccsc3)cc1)C2 (stereo partly specified)
true

Entry to check: CN1C2CCC1[C@@H](C(=O)N[C@H]1CC[C@H](NC(=O)[C@H]3C4CCC(C[C@@H]3c3ccc(Cl)cc3)N4C)CC1)[C@@H](c1ccc(Cl)cc1)C2
false

And what about the compound CN1C2CCC1[C@@H](C(=O)NCc1ccc(CNC(=O)[C@H]3C4CCC(C[C@@H]3c3ccc(-c5ccsc5)cc3)N4C)cc1)[C@@H](c1ccc(-c3ccsc3)cc1)C2 ?
true

----------
# Target or test system: Sodium-dependent noradrenaline transporter (Homo sapiens, UniProt P23975)
# Sequence (P23975 whole entry): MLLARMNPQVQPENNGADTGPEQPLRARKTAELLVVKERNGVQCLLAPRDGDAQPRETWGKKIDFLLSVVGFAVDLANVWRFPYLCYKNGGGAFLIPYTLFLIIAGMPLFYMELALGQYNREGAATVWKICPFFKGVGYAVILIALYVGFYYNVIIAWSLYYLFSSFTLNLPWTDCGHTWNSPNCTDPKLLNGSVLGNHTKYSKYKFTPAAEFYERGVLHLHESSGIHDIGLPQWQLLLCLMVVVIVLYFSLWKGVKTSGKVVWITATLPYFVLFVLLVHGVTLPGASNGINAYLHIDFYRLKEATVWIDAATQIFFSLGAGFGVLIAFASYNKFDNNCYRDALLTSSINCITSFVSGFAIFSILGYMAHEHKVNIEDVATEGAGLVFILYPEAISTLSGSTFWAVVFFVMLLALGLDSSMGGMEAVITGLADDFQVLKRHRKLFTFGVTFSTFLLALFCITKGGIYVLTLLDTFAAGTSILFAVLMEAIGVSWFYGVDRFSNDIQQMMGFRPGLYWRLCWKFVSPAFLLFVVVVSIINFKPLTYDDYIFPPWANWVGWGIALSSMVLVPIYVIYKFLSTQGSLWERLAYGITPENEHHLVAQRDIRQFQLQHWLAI
# Protocol text: Displacement of [125I]methyl 3-(4-iodophenyl)-8-methyl-8-aza-bicyclo[3.2.1]octane-2-carboxylate from human recombinant NET expressed in african green monkey COS1 cells by liquid scintillation counting
Rule: Ki below 2000 nM gives MET, anything at or above gives NOT MET.

Just wondering, is Ki of CN1C2CCC1[C@@H](C(=O)N[C@H]1CC[C@H](NC(=O)[C@H]3C4CCC(C[C@@H]3c3ccc(-c5ccsc5)cc3)N4C)CC1)[C@@H](c1ccc(-c3ccsc3)cc1)C2 below 2000 nM?
NOT MET

How about this compound: CN1C2CCC1[C@@H](C(=O)NCc1ccc(CNC(=O)[C@H]3C4CCC(C[C@@H]3c3ccc(-c5ccsc5)cc3)N4C)cc1)[C@@H](c1ccc(-c3ccsc3)cc1)C2
MET

For CN1C2CCC1[C@@H](C(=O)NCc1ccc(CCNC(=O)[C@H]3C4CCC(C[C@@H]3c3ccc(Cl)cc3)N4C)cc1)[C@@H](c1ccc(Cl)cc1)C2 (some centres not stated) then?
MET

Now consider CN1C2CCC1[C@@H](C(=O)Nc1ccc(CCNC(=O)[C@H]3C4CCC(C[C@@H]3c3ccc(-c5ccsc5)cc3)N4C)cc1)[C@@H](c1ccc(-c3ccsc3)cc1)C2 (some centres not stated) and answer again.
NOT MET

One more compound: CN1C2CCC1[C@@H](C(=O)OCCCCCn1ccnn1)[C@@H](c1ccc(Cl)cc1)C2 (some centres not stated)
MET

Try the compound CN1C2CCC1[C@@H](C(=O)N[C@H]1CC[C@H](NC(=O)[C@H]3C4CCC(C[C@@H]3c3ccc(Cl)cc3)N4C)CC1)[C@@H](c1ccc(Cl)cc1)C2
NOT MET

Try the compound CN1C2CCC1[C@@H](C(=O)NCCCCCCCCNC(=O)[C@H]1C3CCC(C[C@@H]1c1ccc(-c4ccsc4)cc1)N3C)[C@@H](c1ccc(-c3ccsc3)cc1)C2
MET

Here is the next compound: CN1C2CCC1[C@@H](C(=O)OCc1cn(CCCCCCOC(=O)[C@H]3C4CCC(C[C@@H]3c3ccc(Cl)cc3)N4C)nn1)[C@@H](c1ccc(Cl)cc1)C2 (some centres not stated)
MET

Please answer likewise for CN1C2CCC1[C@@H](C(=O)NCCCCCCCCCCNC(=O)[C@H]1C3CCC(C[C@@H]1c1ccc(-c4ccsc4)cc1)N3C)[C@@H](c1ccc(-c3ccsc3)cc1)C2
MET

Moving on to CN1C2CCC1[C@@H](C(=O)NCCC1CCN(C(=O)[C@H]3C4CCC(C[C@@H]3c3ccc(Cl)cc3)N4C)CC1)[C@@H](c1ccc(Cl)cc1)C2 (some centres not stated)
MET

Also check CN1C2CCC1[C@@H](C(=O)Nc1ccc(CCNC(=O)[C@H]3C4CCC(C[C@@H]3c3ccc(Cl)cc3)N4C)cc1)[C@@H](c1ccc(Cl)cc1)C2 (some centres not stated)
MET

Next compound up: CN1C2CCC1[C@@H](C(=O)Nc1ccc(NC(=O)[C@H]3C4CCC(C[C@@H]3c3ccc(Cl)cc3)N4C)cc1)[C@@H](c1ccc(Cl)cc1)C2
NOT MET

----------
# Target or test system: Sodium-dependent dopamine transporter (Homo sapiens)
# Protocol text: Displacement of [125I]methyl 3-(4-iodophenyl)-8-methyl-8-aza-bicyclo[3.2.1]octane-2-carboxylate from human recombinant DAT expressed in african green monkey COS1 cells by liquid scintillation counting
Quantity kind: Ki (nM)
Respond with the bare value in nM.

Record lookup: for Sodium-dependent dopamine transporter (Homo sapiens), what Ki belongs to CN1C2CCC1[C@@H](C(=O)Nc1ccc(CCNC(=O)[C@H]3C4CCC(C[C@@H]3c3ccc(Cl)cc3)N4C)cc1)[C@@H](c1ccc(Cl)cc1)C2 (stereo not given in full) ?
6.6

Then this molecule: CN1C2CCC1[C@@H](C(=O)NCCCCCCNC(=O)[C@H]1C3CCC(C[C@@H]1c1ccc(-c4ccsc4)cc1)N3C)[C@@H](c1ccc(-c3ccsc3)cc1)C2
540

Try the molecule CN1C2CCC1[C@@H](C(=O)Nc1ccc(CCNC(=O)[C@H]3C4CCC(C[C@@H]3c3ccc(-c5ccsc5)cc3)N4C)cc1)[C@@H](c1ccc(-c3ccsc3)cc1)C2 (stereo not given in full)
710

Now try CN1C2CCC1[C@@H](C(=O)NCCC1CCN(C(=O)[C@H]3C4CCC(C[C@@H]3c3ccc(Cl)cc3)N4C)CC1)[C@@H](c1ccc(Cl)cc1)C2 (stereo not given in full) .
180

Please give the result for CN1C2CCC1[C@@H](C(=O)Nc1ccc(CNC(=O)[C@H]3C4CCC(C[C@@H]3c3ccc(-c5ccsc5)cc3)N4C)cc1)[C@@H](c1ccc(-c3ccsc3)cc1)C2 (stereo not given in full) too.
800

Moving on to CN1C2CCC1[C@@H](C(=O)NCc1ccc(CCNC(=O)[C@H]3C4CCC(C[C@@H]3c3ccc(Cl)cc3)N4C)cc1)[C@@H](c1ccc(Cl)cc1)C2 (stereo not given in full)
20

Repeat with CN1C2CCC1[C@@H](C(=O)NCCCCCCCCCCNC(=O)[C@H]1C3CCC(C[C@@H]1c1ccc(-c4ccsc4)cc1)N3C)[C@@H](c1ccc(-c3ccsc3)cc1)C2
350

Follow-up entry: COC(=O)[C@@H]1C2CCC(C[C@@H]1c1ccc(Cl)cc1)N2C (stereo not given in full)
2.7

And for COC(=O)[C@@H]1C2CCC(C[C@@H]1c1ccc(I)cc1)N2C (stereo not given in full) ?
3.9

Now this one: CN1C2CCC1[C@@H](C(=O)OCc1cn(CCCCCCOC(=O)[C@H]3C4CCC(C[C@@H]3c3ccc(Cl)cc3)N4C)nn1)[C@@H](c1ccc(Cl)cc1)C2 (stereo not given in full)
1
